system: Klebsiella pneumoniae; test: Antibacterial activity against extended-spectrum beta-lactamase deficient Klebsiella pneumoniae 15-2 after 18 to 24 hrs by two-fold serial dilution method; assay type: functional

compound	unit.text	censoring.qualifier	MIC90
CO/N=C1\C(=O)N(CCCN2CCN(c3cc4c(cc3F)c(=O)c(C(=O)OCCCN3C(=O)/C(=N/OC)c5cc(C)ccc53)cn4C3CC3)CC2)c2ccc(C)cc21	µg/mL	=	16
CCO/N=C1\C(=O)N(CCCN2CCN(c3cc4c(cc3F)c(=O)c(C(=O)O)cn4C3CC3)CC2)c2ccc(C)cc21	µg/mL	≤	0.03
CCO/N=C1\C(=O)N(CCCN2CCN(c3cc4c(cc3F)c(=O)c(C(=O)OCCCN3C(=O)/C(=N/OCC)c5ccccc53)cn4C3CC3)CC2)c2ccccc21	µg/mL	=	64
Cc1ccc2c(c1)C(=O)C(=O)N2CCCN1CCN(c2cc3c(cc2F)c(=O)c(C(=O)O)cn3C2CC2)CC1	µg/mL	=	0.06
C[C@H]1COc2c(N3CCN(C)CC3)c(F)cc3c(=O)c(C(=O)O)cn1c23.C[C@H]1COc2c(N3CCN(C)CC3)c(F)cc3c(=O)c(C(=O)O)cn1c23.O [LEVOFLOXACIN]	µg/mL	≤	0.03
Cc1ccc2c(c1)C(=O)C(=O)N2CCCOC(=O)c1cn(C2CC2)c2cc(N3CCN(CCCN4C(=O)C(=O)c5cc(C)ccc54)CC3)c(F)cc2c1=O	µg/mL	=	64

----------
Entries and their MIC90
tested on: Klebsiella pneumoniae; assay: Antibacterial activity against extended-spectrum beta-lactamase harboring Klebsiella pneumoniae ATCC 700603 after 18 to 24 hrs by two-fold serial dilution method; assay type: functional
readout.name: MIC90 (mg/L)

smiles.structure	value
CO/N=C1\C(=O)N(CCCN2CCN(c3cc4c(cc3F)c(=O)c(C(=O)OCCCN3C(=O)/C(=N/OC)c5ccccc53)cn4C3CC3)CC2)c2ccccc21	64
CCO/N=C1\C(=O)N(CCCN2CCN(c3cc4c(cc3F)c(=O)c(C(=O)OCCCN3C(=O)/C(=N/OCC)c5cc(C)ccc53)cn4C3CC3)CC2)c2ccc(C)cc21	128
CO/N=C1\C(=O)N(CCCN2CCN(c3cc4c(cc3F)c(=O)c(C(=O)O)cn4C3CC3)CC2)c2ccc(C)cc21	0.25
C[C@H]1COc2c(N3CCN(C)CC3)c(F)cc3c(=O)c(C(=O)O)cn1c23.C[C@H]1COc2c(N3CCN(C)CC3)c(F)cc3c(=O)c(C(=O)O)cn1c23.O	0.5
O=C1C(=O)N(CCCN2CCN(c3cc4c(cc3F)c(=O)c(C(=O)O)cn4C3CC3)CC2)c2ccccc21	1
O=C1C(=O)N(CCCOC(=O)c2cn(C3CC3)c3cc(N4CCN(CCCN5C(=O)C(=O)c6ccccc65)CC4)c(F)cc3c2=O)c2ccccc21	64
Cc1ccc2c(c1)C(=O)C(=O)N2CCCN1CCN(c2cc3c(cc2F)c(=O)c(C(=O)O)cn3C2CC2)CC1	1

----------
test system: Klebsiella pneumoniae; assay: Antibacterial activity against extended-spectrum beta-lactamase deficient Klebsiella pneumoniae 15-2 after 18 to 24 hrs by two-fold serial dilution method; format: functional
Entries and their MIC90
readout.name: MIC90 (µg/mL)

smiles.structure	unit.text	censoring.qualifier	value
CO/N=C1\C(=O)N(CCCN2CCN(c3cc4c(cc3F)c(=O)c(C(=O)OCCCN3C(=O)/C(=N/OC)c5ccccc53)cn4C3CC3)CC2)c2ccccc21	µg/mL	=	32
O=C1C(=O)N(CCCOC(=O)c2cn(C3CC3)c3cc(N4CCN(CCCN5C(=O)C(=O)c6ccccc65)CC4)c(F)cc3c2=O)c2ccccc21	µg/mL	=	64
O=C(O)c1cn(C2CC2)c2cc(N3CCNCC3)c(F)cc2c1=O	µg/mL	≤	0.03
CCO/N=C1\C(=O)N(CCCN2CCN(c3cc4c(cc3F)c(=O)c(C(=O)O)cn4C3CC3)CC2)c2ccccc21	µg/mL	=	0.03
O=C1C(=O)N(CCCN2CCN(c3cc4c(cc3F)c(=O)c(C(=O)O)cn4C3CC3)CC2)c2ccccc21	µg/mL	=	0.125
CCO/N=C1\C(=O)N(CCCN2CCN(c3cc4c(cc3F)c(=O)c(C(=O)OCCCN3C(=O)/C(=N/OCC)c5cc(C)ccc53)cn4C3CC3)CC2)c2ccc(C)cc21	µg/mL	=	32
CO/N=C1\C(=O)N(CCCN2CCN(c3cc4c(cc3F)c(=O)c(C(=O)O)cn4C3CC3)CC2)c2ccccc21	µg/mL	≤	0.03
CO/N=C1\C(=O)N(CCCN2CCN(c3cc4c(cc3F)c(=O)c(C(=O)O)cn4C3CC3)CC2)c2ccc(C)cc21	µg/mL	≤	0.03

----------
Entries and their MIC90
test system: Klebsiella pneumoniae; assay: Antibacterial activity against extended-spectrum beta-lactamase harboring Klebsiella pneumoniae ATCC 700603 after 18 to 24 hrs by two-fold serial dilution method; type: functional

compound	MIC90 / mg/L
Cc1ccc2c(c1)C(=O)C(=O)N2CCCOC(=O)c1cn(C2CC2)c2cc(N3CCN(CCCN4C(=O)C(=O)c5cc(C)ccc54)CC3)c(F)cc2c1=O	64
CO/N=C1\C(=O)N(CCCN2CCN(c3cc4c(cc3F)c(=O)c(C(=O)OCCCN3C(=O)/C(=N/OC)c5cc(C)ccc53)cn4C3CC3)CC2)c2ccc(C)cc21	32
CO/N=C1\C(=O)N(CCCN2CCN(c3cc4c(cc3F)c(=O)c(C(=O)O)cn4C3CC3)CC2)c2ccccc21	0.5
CCO/N=C1\C(=O)N(CCCN2CCN(c3cc4c(cc3F)c(=O)c(C(=O)O)cn4C3CC3)CC2)c2ccc(C)cc21	0.5
CCO/N=C1\C(=O)N(CCCN2CCN(c3cc4c(cc3F)c(=O)c(C(=O)O)cn4C3CC3)CC2)c2ccccc21	0.5
O=C(O)c1cn(C2CC2)c2cc(N3CCNCC3)c(F)cc2c1=O [CIPROFLOXACIN]	0.5
CCO/N=C1\C(=O)N(CCCN2CCN(c3cc4c(cc3F)c(=O)c(C(=O)OCCCN3C(=O)/C(=N/OCC)c5ccccc53)cn4C3CC3)CC2)c2ccccc21	64

----------
tested on: Klebsiella aerogenes; assay: Antibacterial activity against Enterobacter aerogenes ATCC 13048 after 18 to 24 hrs by two-fold serial dilution method; format: functional
Entries and their MIC90

compound	study.system	MIC90
Cc1ccc2c(c1)C(=O)C(=O)N2CCCN1CCN(c2cc3c(cc2F)c(=O)c(C(=O)O)cn3C2CC2)CC1	Klebsiella aerogenes	0.06 µg/mL
CCO/N=C1\C(=O)N(CCCN2CCN(c3cc4c(cc3F)c(=O)c(C(=O)OCCCN3C(=O)/C(=N/OCC)c5ccccc53)cn4C3CC3)CC2)c2ccccc21	Klebsiella aerogenes	64 µg/mL
O=C(O)c1cn(C2CC2)c2cc(N3CCNCC3)c(F)cc2c1=O [CIPROFLOXACIN]	Klebsiella aerogenes	≤ 0.03 µg/mL
O=C1C(=O)N(CCCOC(=O)c2cn(C3CC3)c3cc(N4CCN(CCCN5C(=O)C(=O)c6ccccc65)CC4)c(F)cc3c2=O)c2ccccc21	Klebsiella aerogenes	64 µg/mL

----------
test system: Morganella morganii; experiment: Antibacterial activity against Morganella morganii ATCC 25830 after 18 to 24 hrs by two-fold serial dilution method; format: functional

smiles.structure	unit.text	censoring.qualifier	MIC90
C[C@H]1COc2c(N3CCN(C)CC3)c(F)cc3c(=O)c(C(=O)O)cn1c23.C[C@H]1COc2c(N3CCN(C)CC3)c(F)cc3c(=O)c(C(=O)O)cn1c23.O	mg/L	≤	0.03
Cc1ccc2c(c1)C(=O)C(=O)N2CCCN1CCN(c2cc3c(cc2F)c(=O)c(C(=O)O)cn3C2CC2)CC1	mg/L	≤	0.03
CCO/N=C1\C(=O)N(CCCN2CCN(c3cc4c(cc3F)c(=O)c(C(=O)OCCCN3C(=O)/C(=N/OCC)c5cc(C)ccc53)cn4C3CC3)CC2)c2ccc(C)cc21	mg/L	=	32
CO/N=C1\C(=O)N(CCCN2CCN(c3cc4c(cc3F)c(=O)c(C(=O)OCCCN3C(=O)/C(=N/OC)c5cc(C)ccc53)cn4C3CC3)CC2)c2ccc(C)cc21	mg/L	=	64
CCO/N=C1\C(=O)N(CCCN2CCN(c3cc4c(cc3F)c(=O)c(C(=O)O)cn4C3CC3)CC2)c2ccccc21	mg/L	=	0.03
O=C1C(=O)N(CCCN2CCN(c3cc4c(cc3F)c(=O)c(C(=O)O)cn4C3CC3)CC2)c2ccccc21	mg/L	≤	0.03
CO/N=C1\C(=O)N(CCCN2CCN(c3cc4c(cc3F)c(=O)c(C(=O)OCCCN3C(=O)/C(=N/OC)c5ccccc53)cn4C3CC3)CC2)c2ccccc21	mg/L	=	128

----------
test system: Enterococcus faecalis; experiment: Antibacterial activity against Enterococcus faecalis ATCC 51299 after 18 to 24 hrs by two-fold serial dilution method; type: functional
Entries and their MIC90
readout.name: MIC90 (µg/mL)

smiles.structure	unit.text	censoring.qualifier	value
O=C1C(=O)N(CCCOC(=O)c2cn(C3CC3)c3cc(N4CCN(CCCN5C(=O)C(=O)c6ccccc65)CC4)c(F)cc3c2=O)c2ccccc21	µg/mL	>	128
CO/N=C1\C(=O)N(CCCN2CCN(c3cc4c(cc3F)c(=O)c(C(=O)O)cn4C3CC3)CC2)c2ccc(C)cc21	µg/mL	=	0.5
CO/N=C1\C(=O)N(CCCN2CCN(c3cc4c(cc3F)c(=O)c(C(=O)O)cn4C3CC3)CC2)c2ccccc21	µg/mL	=	1
Cc1ccc2c(c1)C(=O)C(=O)N2CCCOC(=O)c1cn(C2CC2)c2cc(N3CCN(CCCN4C(=O)C(=O)c5cc(C)ccc54)CC3)c(F)cc2c1=O	µg/mL	>	128
O=C(O)c1cn(C2CC2)c2cc(N3CCNCC3)c(F)cc2c1=O	µg/mL	=	0.5
CCO/N=C1\C(=O)N(CCCN2CCN(c3cc4c(cc3F)c(=O)c(C(=O)O)cn4C3CC3)CC2)c2ccc(C)cc21	µg/mL	=	1
CCO/N=C1\C(=O)N(CCCN2CCN(c3cc4c(cc3F)c(=O)c(C(=O)OCCCN3C(=O)/C(=N/OCC)c5ccccc53)cn4C3CC3)CC2)c2ccccc21	µg/mL	>	128
O=C1C(=O)N(CCCN2CCN(c3cc4c(cc3F)c(=O)c(C(=O)O)cn4C3CC3)CC2)c2ccccc21	µg/mL	=	1
CCO/N=C1\C(=O)N(CCCN2CCN(c3cc4c(cc3F)c(=O)c(C(=O)O)cn4C3CC3)CC2)c2ccccc21	µg/mL	=	1
CO/N=C1\C(=O)N(CCCN2CCN(c3cc4c(cc3F)c(=O)c(C(=O)OCCCN3C(=O)/C(=N/OC)c5ccccc53)cn4C3CC3)CC2)c2ccccc21	µg/mL	=	128
CCO/N=C1\C(=O)N(CCCN2CCN(c3cc4c(cc3F)c(=O)c(C(=O)OCCCN3C(=O)/C(=N/OCC)c5cc(C)ccc53)cn4C3CC3)CC2)c2ccc(C)cc21	µg/mL	=	128
CO/N=C1\C(=O)N(CCCN2CCN(c3cc4c(cc3F)c(=O)c(C(=O)OCCCN3C(=O)/C(=N/OC)c5cc(C)ccc53)cn4C3CC3)CC2)c2ccc(C)cc21	µg/mL	=	128
C[C@H]1COc2c(N3CCN(C)CC3)c(F)cc3c(=O)c(C(=O)O)cn1c23.C[C@H]1COc2c(N3CCN(C)CC3)c(F)cc3c(=O)c(C(=O)O)cn1c23.O	µg/mL	=	1
Cc1ccc2c(c1)C(=O)C(=O)N2CCCN1CCN(c2cc3c(cc2F)c(=O)c(C(=O)O)cn3C2CC2)CC1	µg/mL	=	0.5

The measured values listed here are drawn from ChEMBL document CHEMBL4270565.
